Reference source: patent US20200299384A1

systemUnderTest: T1, Human CD3 epsilon (CD3epsilon) protein (His Tag) (human, UniProt P07766 23-126)
T1 construct: extracellular domain; Bought protein; also called recombinant human CD3epsilon ECD; not shown: His tag
T1 sequence (P07766 23-126): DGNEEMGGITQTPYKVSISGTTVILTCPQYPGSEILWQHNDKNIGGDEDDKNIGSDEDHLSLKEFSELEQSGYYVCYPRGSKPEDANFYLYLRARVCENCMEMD
procedureDetails: ELISA, antigen coated on plate, HRP-labelled 2nd antibody; also: test concentration or dose not given here
outcomeMeasure: ELISA (A450)
Answers are plain numbers, in A450.

These solved cases illustrate the format of a correct answer.
[[record]]
binder = "WBP3311_2.615.8 (antibody, V domains shown, Mouse monoclonal antibody from hybridoma; also called W3311-2.615.8) VH: QVQLQQSGPELVKPGTSMKISCKASGYSFTDFYTHWVRQRPGQGLEWIGWIFPGSDNIKYNEKFKGKATLTADTSSSTAYMQLSSLTSEDSAVYFCARDSVSVYYFDYWGQGTTLTVSS VL: DIVMSQSPSSLAVTAGEKVTMSCKSSQSLLNIRTRKNYLAWYQQKPGQSPKLLIYWASTRDSGVPDRFTGSGSGTDFTLTISSVQAEDLAVYYCTQSFILRTFGGGTKLEIK"
outcomemeasure = "ELISA (A450)"
readoutnumber = 1.55

[[record]]
binder = "WBP3311_2.166.48 (antibody, IgG2a, V domains shown, Mouse monoclonal antibody from hybridoma; also called W3311-2.166.48; W3311_2.166.48) VH: QVQLQQSGPELVKPGASVKIACKASGYSFTTYYIHWVKQRPGQGLEWIGWIFPGNDNIKYSEKFKGKATLTADTSSSTAYMQLSSLTSEDSAVYFCAIDSVSIYYFDYWGQGTTLTVSS VL: DIVMSQSPSSLAVSAGEKVTMSCKSSQSLLNSRTRKNYLAWYQQKPGQSPKLLIYWASTRKSGVPDRFTGSGSGTDFTLTINSVQAEDLAVYYCTQSFILRTFGGGTKLEIK"
outcomemeasure = "ELISA (A450)"
readoutnumber = 1.64


Reported ELISA (A450) ( WBP3311_2.844.8 (antibody, V domains shown, Mouse monoclonal antibody from hybridoma; also called W3311-2.844.8; clone 2.844.8) VH: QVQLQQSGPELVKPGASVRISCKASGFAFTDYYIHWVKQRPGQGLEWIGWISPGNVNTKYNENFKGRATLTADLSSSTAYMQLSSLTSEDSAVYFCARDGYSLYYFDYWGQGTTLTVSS VL: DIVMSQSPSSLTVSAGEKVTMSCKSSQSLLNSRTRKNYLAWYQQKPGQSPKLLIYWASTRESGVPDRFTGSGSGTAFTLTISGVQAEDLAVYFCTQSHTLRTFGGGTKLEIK ) = 1.54
